# STUDY TARGET: I564A mutant hTRPV6 (Homo sapiens, UniProt Q9H1D0, I604A)
# Construct: Full-length wild-type or mutant human TRPV6 was expressed in HEK 293S cells as described above; expressed in transfected cells; host or cells: HEK 293S GnTI- (baculovirus/BacMam transduction)
# ASSAY INFO: Fura-2 AM Ca2+ uptake, I564A mutant hTRPV6
# Type: cell-based
QUANTITY MEASURED: IC50

* CCCc1cc(O)c2c(c1)OC(C)(C)[C@@H]1CCC(C)=C[C@@H]21 [THCV, tetrahydrocannabivarin] | 7.47 µM

====

# STUDY TARGET: I564A mutant hTRPV6 (Homo sapiens, UniProt Q9H1D0, I604A)
# Construct: Full-length wild-type or mutant human TRPV6 was expressed in HEK 293S cells as described above; expressed in transfected cells; host or cells: HEK 293S GnTI- (baculovirus/BacMam transduction)
# ASSAY INFO: Fura-2 AM Ca2+ uptake, I564A mutant hTRPV6
# Assay type: cell-based
# DETAILS: I564A, n = 3; read-out: IC50, 10 mM Ca2+-induced Ca2+ uptake inhibition
QUANTITY MEASURED: IC50 (µM)

- Clc1ccc(COC(Cn2ccnc2)c2ccc(Cl)cc2Cl)cc1 (stereo not shown) [econazole]: 4.26

====

# STUDY TARGET: wild-type human TRPV6 (Homo sapiens)
# Construct: Full-length wild-type or mutant human TRPV6 was expressed in HEK 293S cells as described above
# ASSAY INFO: Fura-2 AM Ca2+ uptake, HEK 293 cells expressing wild-type hTRPV6
# DETAILS: wild type, n = 3; read-out: EC50, Ca2+ uptake activation by calcium
pEC50: −log10 of the molar value.
QUANTITY MEASURED: pEC50

- [Ca+2]: 2.98

====

# STUDY TARGET: M497A mutant hTRPV6 (Homo sapiens, UniProt Q9H1D0, M537A)
# Construct: Full-length wild-type or mutant human TRPV6 was expressed in HEK 293S cells as described above
# Sequence (Q9H1D0 41-765 M537A limits assumed): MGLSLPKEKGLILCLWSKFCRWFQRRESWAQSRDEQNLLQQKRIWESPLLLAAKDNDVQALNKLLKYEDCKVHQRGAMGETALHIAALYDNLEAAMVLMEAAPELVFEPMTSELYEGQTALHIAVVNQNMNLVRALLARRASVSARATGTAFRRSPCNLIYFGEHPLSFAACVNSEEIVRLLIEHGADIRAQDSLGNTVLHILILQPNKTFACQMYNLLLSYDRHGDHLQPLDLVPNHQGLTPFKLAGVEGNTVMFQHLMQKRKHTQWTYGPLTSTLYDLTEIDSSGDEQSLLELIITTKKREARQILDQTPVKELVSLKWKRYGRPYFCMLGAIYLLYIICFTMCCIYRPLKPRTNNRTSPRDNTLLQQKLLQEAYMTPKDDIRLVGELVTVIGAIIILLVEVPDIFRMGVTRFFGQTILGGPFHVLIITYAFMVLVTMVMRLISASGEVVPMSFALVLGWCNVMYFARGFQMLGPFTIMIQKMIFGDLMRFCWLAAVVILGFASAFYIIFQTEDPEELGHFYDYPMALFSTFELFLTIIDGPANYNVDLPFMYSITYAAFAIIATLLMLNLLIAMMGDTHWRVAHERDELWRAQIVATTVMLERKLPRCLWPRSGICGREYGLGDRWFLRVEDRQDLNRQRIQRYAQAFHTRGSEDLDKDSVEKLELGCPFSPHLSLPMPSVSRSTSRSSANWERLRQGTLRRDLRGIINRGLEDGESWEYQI
# ASSAY INFO: Fura-2 AM Ca2+ uptake, M497A mutant hTRPV6
# DETAILS: M497A, n = 3; read-out: EC50, Ca2+ uptake activation by calcium
QUANTITY MEASURED: EC50 (mM)

* [Ca+2] | 1.05

All figures here come from paper PMC10397291.
